Entries and their MIC values follow.
Test system: Cryptococcus neoformans
Assay: Antifungal activity against Cryptococcus neoformans CMGCC2.3161 measured after 72 hrs by broth microdilution assay
Type: functional
OBSERVABLE: MIC (µg/mL)

>  <COMPOUND>
Clc1ccc(C[Se]C(Cn2cncn2)c2ccc(Cl)cc2Cl)cc1 (stereo unspecified)

>  <NUMBER>
16

$$$$
>  <COMPOUND>
COc1ccc([Se]C(Cn2ccnc2)c2ccc(F)cc2F)cc1 (stereo unspecified)

>  <NUMBER>
0.5

$$$$
>  <COMPOUND>
Cc1ccc(C[Se]C(Cn2cncn2)c2ccc(F)cc2F)cc1 (stereo unspecified)

>  <NUMBER>
4

$$$$
>  <COMPOUND>
CCc1ccccc1[Se]C(Cn1ccnc1)c1ccc(Cl)cc1Cl (stereo unspecified)

>  <NUMBER>
0.5

$$$$
>  <COMPOUND>
Cc1ccccc1[Se]C(Cn1ccnc1)c1ccc(Cl)cc1Cl (stereo unspecified)

>  <NUMBER>
0.5

$$$$
>  <COMPOUND>
Cc1ccc(C)c([Se]C(Cn2ccnc2)c2ccc(Cl)cc2Cl)c1 (stereo unspecified)

>  <NUMBER>
0.5

$$$$
>  <COMPOUND>
COc1ccccc1[Se]C(Cn1ccnc1)c1ccc(F)cc1F (stereo unspecified)

>  <NUMBER>
1

$$$$
>  <COMPOUND>
OC(Cn1cncn1)(Cn1cncn1)c1ccc(F)cc1F

>  <NUMBER>
4

$$$$
>  <COMPOUND>
Cc1cc(C)cc([Se]C(Cn2ccnc2)c2ccc(F)cc2F)c1 (stereo unspecified)

>  <NUMBER>
0.5

$$$$
>  <COMPOUND>
CCc1ccccc1[Se]C(Cn1ccnc1)c1ccc(F)cc1F (stereo unspecified)

>  <NUMBER>
1

$$$$
>  <COMPOUND>
Cc1cccc(C)c1[Se]C(Cn1ccnc1)c1ccc(Cl)cc1Cl (stereo unspecified)

>  <NUMBER>
0.5

$$$$

---

List of MIC values.
Tested on: Candida albicans
Test: Antifungal activity against fluconazole-resistant Candida albicans 632 assessed as inhibition of microbial growth after 24 hrs by broth microdilution method
Type: functional
OBSERVABLE: MIC (µg/mL)

>  <COMPOUND>
Cc1cccc(C)c1[Se]C(Cn1ccnc1)c1ccc(F)cc1F (stereo not drawn)

>  <OBSERVABLE>
MIC

>  <RELATIONAL_OPERATOR>
=

>  <NUMBER>
1

$$$$
>  <COMPOUND>
COc1ccccc1[Se]C(Cn1ccnc1)c1ccc(F)cc1F (stereo not drawn)

>  <OBSERVABLE>
MIC

>  <RELATIONAL_OPERATOR>
=

>  <NUMBER>
16

$$$$
>  <COMPOUND>
OC(Cn1cncn1)(Cn1cncn1)c1ccc(F)cc1F

>  <OBSERVABLE>
MIC

>  <RELATIONAL_OPERATOR>
>

>  <NUMBER>
128

$$$$
>  <COMPOUND>
Clc1ccc(C(Cn2ccnc2)[Se]c2ccccc2)c(Cl)c1 (stereo not drawn)

>  <OBSERVABLE>
MIC

>  <RELATIONAL_OPERATOR>
=

>  <NUMBER>
1

$$$$
>  <COMPOUND>
COc1ccc(C[Se]C(Cn2cncn2)c2ccc(Cl)cc2Cl)cc1 (stereo not drawn)

>  <OBSERVABLE>
MIC

>  <RELATIONAL_OPERATOR>
>

>  <NUMBER>
128

$$$$
>  <COMPOUND>
COc1ccc([Se]C(Cn2ccnc2)c2ccc(F)cc2F)cc1 (stereo not drawn)

>  <OBSERVABLE>
MIC

>  <RELATIONAL_OPERATOR>
=

>  <NUMBER>
16

$$$$
>  <COMPOUND>
Cc1cccc([Se]C(Cn2ccnc2)c2ccc(Cl)cc2Cl)c1 (stereo not drawn)

>  <OBSERVABLE>
MIC

>  <RELATIONAL_OPERATOR>
=

>  <NUMBER>
1

$$$$
>  <COMPOUND>
Fc1ccc(C(Cn2cncn2)[Se]Cc2ccccc2Cl)c(F)c1 (stereo not drawn)

>  <OBSERVABLE>
MIC

>  <RELATIONAL_OPERATOR>
=

>  <NUMBER>
8

$$$$
>  <COMPOUND>
Cc1ccc(C[Se]C(Cn2cncn2)c2ccc(F)cc2F)cc1 (stereo not drawn)

>  <OBSERVABLE>
MIC

>  <RELATIONAL_OPERATOR>
>

>  <NUMBER>
128

$$$$
>  <COMPOUND>
COc1ccccc1[Se]C(Cn1ccnc1)c1ccc(Cl)cc1Cl (stereo not drawn)

>  <OBSERVABLE>
MIC

>  <RELATIONAL_OPERATOR>
=

>  <NUMBER>
2

$$$$
>  <COMPOUND>
Cc1cc(C)cc([Se]C(Cn2ccnc2)c2ccc(Cl)cc2Cl)c1 (stereo not drawn)

>  <OBSERVABLE>
MIC

>  <RELATIONAL_OPERATOR>
=

>  <NUMBER>
16

$$$$
>  <COMPOUND>
Fc1ccc(C(Cn2cncn2)[Se]Cc2ccccc2)c(F)c1 (stereo not drawn)

>  <OBSERVABLE>
MIC

>  <RELATIONAL_OPERATOR>
>

>  <NUMBER>
128

$$$$
>  <COMPOUND>
Clc1ccc(C(Cn2cncn2)[Se]Cc2ccccc2Cl)c(Cl)c1 (stereo not drawn)

>  <OBSERVABLE>
MIC

>  <RELATIONAL_OPERATOR>
>

>  <NUMBER>
128

$$$$
>  <COMPOUND>
CCc1ccccc1[Se]C(Cn1ccnc1)c1ccc(F)cc1F (stereo not drawn)

>  <OBSERVABLE>
MIC

>  <RELATIONAL_OPERATOR>
=

>  <NUMBER>
1

$$$$
>  <COMPOUND>
Clc1ccc(C(Cn2cncn2)[Se]Cc2ccccc2)c(Cl)c1 (stereo not drawn)

>  <OBSERVABLE>
MIC

>  <RELATIONAL_OPERATOR>
>

>  <NUMBER>
128

$$$$
>  <COMPOUND>
Fc1ccc(C(Cn2ccnc2)[Se]c2ccccc2)c(F)c1 (stereo not drawn)

>  <OBSERVABLE>
MIC

>  <RELATIONAL_OPERATOR>
=

>  <NUMBER>
2

$$$$
>  <COMPOUND>
Cc1ccccc1[Se]C(Cn1ccnc1)c1ccc(F)cc1F (stereo not drawn)

>  <OBSERVABLE>
MIC

>  <RELATIONAL_OPERATOR>
=

>  <NUMBER>
4

$$$$
>  <COMPOUND>
Cc1cccc([Se]C(Cn2ccnc2)c2ccc(F)cc2F)c1 (stereo not drawn)

>  <OBSERVABLE>
MIC

>  <RELATIONAL_OPERATOR>
=

>  <NUMBER>
0.5

$$$$
>  <COMPOUND>
Cc1ccc(C)c([Se]C(Cn2ccnc2)c2ccc(F)cc2F)c1 (stereo not drawn)

>  <OBSERVABLE>
MIC

>  <RELATIONAL_OPERATOR>
=

>  <NUMBER>
2

$$$$
>  <COMPOUND>
Cc1ccc(C[Se]C(Cn2cncn2)c2ccc(Cl)cc2Cl)cc1 (stereo not drawn)

>  <OBSERVABLE>
MIC

>  <RELATIONAL_OPERATOR>
>

>  <NUMBER>
128

$$$$
>  <COMPOUND>
COc1cccc([Se]C(Cn2ccnc2)c2ccc(Cl)cc2Cl)c1 (stereo not drawn)

>  <OBSERVABLE>
MIC

>  <RELATIONAL_OPERATOR>
=

>  <NUMBER>
16

$$$$
>  <COMPOUND>
Cc1cccc(C)c1[Se]C(Cn1ccnc1)c1ccc(Cl)cc1Cl (stereo not drawn)

>  <OBSERVABLE>
MIC

>  <RELATIONAL_OPERATOR>
=

>  <NUMBER>
8

$$$$
>  <COMPOUND>
CCc1ccc([Se]C(Cn2ccnc2)c2ccc(F)cc2F)cc1 (stereo not drawn)

>  <OBSERVABLE>
MIC

>  <RELATIONAL_OPERATOR>
=

>  <NUMBER>
1

$$$$
>  <COMPOUND>
CCc1ccc([Se]C(Cn2ccnc2)c2ccc(Cl)cc2Cl)cc1 (stereo not drawn)

>  <OBSERVABLE>
MIC

>  <RELATIONAL_OPERATOR>
=

>  <NUMBER>
4

$$$$
>  <COMPOUND>
Cc1cc(C)cc([Se]C(Cn2ccnc2)c2ccc(F)cc2F)c1 (stereo not drawn)

>  <OBSERVABLE>
MIC

>  <RELATIONAL_OPERATOR>
=

>  <NUMBER>
8

$$$$
>  <COMPOUND>
Fc1ccc(C(Cn2cncn2)[Se]Cc2ccc(Cl)cc2)c(F)c1 (stereo not drawn)

>  <OBSERVABLE>
MIC

>  <RELATIONAL_OPERATOR>
>

>  <NUMBER>
128

$$$$
>  <COMPOUND>
Fc1ccc([Se]C(Cn2ccnc2)c2ccc(Cl)cc2Cl)cc1 (stereo not drawn)

>  <OBSERVABLE>
MIC

>  <RELATIONAL_OPERATOR>
=

>  <NUMBER>
1

$$$$
>  <COMPOUND>
Fc1cccc([Se]C(Cn2ccnc2)c2ccc(F)cc2F)c1 (stereo not drawn)

>  <OBSERVABLE>
MIC

>  <RELATIONAL_OPERATOR>
=

>  <NUMBER>
1

$$$$
>  <COMPOUND>
Clc1ccc(C[Se]C(Cn2cncn2)c2ccc(Cl)cc2Cl)c(Cl)c1 (stereo not drawn)

>  <OBSERVABLE>
MIC

>  <RELATIONAL_OPERATOR>
>

>  <NUMBER>
128

$$$$
>  <COMPOUND>
Clc1ccc(C[Se]C(Cn2cncn2)c2ccc(Cl)cc2Cl)cc1 (stereo not drawn)

>  <OBSERVABLE>
MIC

>  <RELATIONAL_OPERATOR>
>

>  <NUMBER>
128

$$$$
>  <COMPOUND>
COc1cccc([Se]C(Cn2ccnc2)c2ccc(F)cc2F)c1 (stereo not drawn)

>  <OBSERVABLE>
MIC

>  <RELATIONAL_OPERATOR>
=

>  <NUMBER>
1

$$$$
>  <COMPOUND>
COc1ccc([Se]C(Cn2ccnc2)c2ccc(Cl)cc2Cl)cc1 (stereo not drawn)

>  <OBSERVABLE>
MIC

>  <RELATIONAL_OPERATOR>
=

>  <NUMBER>
2

$$$$
>  <COMPOUND>
Cc1ccc([Se]C(Cn2ccnc2)c2ccc(Cl)cc2Cl)cc1 (stereo not drawn)

>  <OBSERVABLE>
MIC

>  <RELATIONAL_OPERATOR>
=

>  <NUMBER>
4

$$$$

Cited source for all entries: ChEMBL document CHEMBL4813985
